- experimental-target: Sodium channel protein type 5 subunit alpha (Homo sapiens, UniProt Q14524)
- Sequence (Q14524 whole entry): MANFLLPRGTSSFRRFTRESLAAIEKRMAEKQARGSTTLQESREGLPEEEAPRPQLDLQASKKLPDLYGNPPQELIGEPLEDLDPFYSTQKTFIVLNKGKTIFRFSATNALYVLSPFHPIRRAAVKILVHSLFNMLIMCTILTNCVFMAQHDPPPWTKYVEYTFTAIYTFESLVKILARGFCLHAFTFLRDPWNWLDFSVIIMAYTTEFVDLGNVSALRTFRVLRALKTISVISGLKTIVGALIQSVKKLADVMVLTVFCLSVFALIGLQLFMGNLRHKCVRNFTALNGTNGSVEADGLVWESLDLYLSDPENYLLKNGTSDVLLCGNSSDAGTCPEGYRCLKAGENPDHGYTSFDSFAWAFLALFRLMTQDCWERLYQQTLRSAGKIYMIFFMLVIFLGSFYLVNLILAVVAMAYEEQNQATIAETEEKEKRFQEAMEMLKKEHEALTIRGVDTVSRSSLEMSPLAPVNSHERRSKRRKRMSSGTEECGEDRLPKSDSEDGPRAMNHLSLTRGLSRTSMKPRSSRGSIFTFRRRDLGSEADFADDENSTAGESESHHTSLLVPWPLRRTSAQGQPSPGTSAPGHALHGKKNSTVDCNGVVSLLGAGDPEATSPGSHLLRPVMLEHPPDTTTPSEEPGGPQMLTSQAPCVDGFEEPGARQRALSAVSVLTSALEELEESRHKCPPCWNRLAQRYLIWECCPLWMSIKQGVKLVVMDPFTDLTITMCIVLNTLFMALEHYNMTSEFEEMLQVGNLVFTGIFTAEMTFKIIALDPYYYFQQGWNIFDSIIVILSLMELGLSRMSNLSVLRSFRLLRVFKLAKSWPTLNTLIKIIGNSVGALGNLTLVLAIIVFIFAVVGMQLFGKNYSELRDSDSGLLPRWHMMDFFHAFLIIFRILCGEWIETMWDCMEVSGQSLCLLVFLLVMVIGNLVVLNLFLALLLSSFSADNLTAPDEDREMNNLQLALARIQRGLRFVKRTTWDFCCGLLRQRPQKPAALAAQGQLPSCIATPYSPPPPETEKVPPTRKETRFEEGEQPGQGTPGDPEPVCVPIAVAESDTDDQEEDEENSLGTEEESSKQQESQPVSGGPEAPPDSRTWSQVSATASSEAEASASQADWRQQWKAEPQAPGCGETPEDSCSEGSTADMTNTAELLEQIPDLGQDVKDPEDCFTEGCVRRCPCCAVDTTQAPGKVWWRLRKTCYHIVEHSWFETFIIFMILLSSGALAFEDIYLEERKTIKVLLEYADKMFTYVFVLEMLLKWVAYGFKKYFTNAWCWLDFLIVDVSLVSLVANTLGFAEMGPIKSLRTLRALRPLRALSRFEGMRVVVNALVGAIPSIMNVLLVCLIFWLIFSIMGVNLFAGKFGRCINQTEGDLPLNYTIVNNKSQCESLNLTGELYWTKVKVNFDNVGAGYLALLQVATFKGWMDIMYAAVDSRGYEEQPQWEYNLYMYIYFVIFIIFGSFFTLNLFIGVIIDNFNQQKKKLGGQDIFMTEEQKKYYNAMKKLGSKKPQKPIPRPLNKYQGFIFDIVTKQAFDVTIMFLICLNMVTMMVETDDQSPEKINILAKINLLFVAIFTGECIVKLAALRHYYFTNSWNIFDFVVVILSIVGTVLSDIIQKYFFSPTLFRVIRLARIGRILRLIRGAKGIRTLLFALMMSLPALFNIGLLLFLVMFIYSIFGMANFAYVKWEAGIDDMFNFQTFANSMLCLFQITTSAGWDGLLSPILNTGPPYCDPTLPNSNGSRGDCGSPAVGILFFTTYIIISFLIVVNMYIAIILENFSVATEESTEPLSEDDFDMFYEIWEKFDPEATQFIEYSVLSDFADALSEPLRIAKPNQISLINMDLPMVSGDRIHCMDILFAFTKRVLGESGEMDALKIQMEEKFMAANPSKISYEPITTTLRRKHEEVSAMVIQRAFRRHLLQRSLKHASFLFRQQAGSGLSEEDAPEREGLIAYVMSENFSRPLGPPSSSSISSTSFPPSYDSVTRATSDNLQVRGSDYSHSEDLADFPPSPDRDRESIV
- protocol: Compounds were solubilised to 10 mM in DMSO and diluted in HBPS to 30 mM. 6-Point concentration-response curves were generated using serial dilutions from the top test concentration. Electrophysiological recordings were made from a Chinese Hamster Ovary cell line stably expressing the full-length ion channel. Single cell ionic currents were measured in whole-cell configuration at room temperature. The internal solution for hNaV1.5 is buffered to pH 7.3, and the external solution is buffered to pH 7.4. The test pulse was applied according to voltage protocol. Compounds were incubated for 2 min to allow stabilization of the parameters. Concentration-response curves were generated by cumulative addition of compound with concentrations low to high. In all cases, steady-state inhibition was achieved before the next concentration of compound was added. To investigate any use-dependence, an 8-pulse voltage protocol is applied at a frequency of 3 Hz. Inhibition is compared at pulse 1 and pulse 8. Any difference in the potency of a compound at P8 versus P1 would be typical of use-dependent block. IC50 values or % inhibition at the top test concentration is obtained. The assay has been performed by Concept Life Sciences Ltd.
- Format: toxicity, cell-based, Cricetulus griseus, CHO
- measurement-conditions: chinese hamster, cho, pH 7.3, 2 min; 2 min; top test concentration 30 uM
endpoint-name: Inhibition (%)
Write the number in % without appending the unit.

1) CC(C)[C@H](Nc1ncnc2[nH]ccc12)c1ccc2c(c1)S(=O)(=O)CCC2; 29
2) COc1ccc([C@H](Cc2nnn[nH]2)NC(=O)c2ncnc3[nH]ccc23)cc1; 8
3) CC(C)[C@H](Nc1ncnc2[nH]c(-c3cnn(C)c3C#N)cc12)c1ccc2c(n1)OCCO2; 35
4) CC(C)[C@@H](Nc1ncnc2[nH]c(-c3cnn(C)c3C#N)cc12)c1ccc2c(n1)OCCO2; 25
5) CNC(=O)Cn1cc(-c2cc3c(N[C@@H](c4ccc5c(c4)S(=O)(=O)CCC5)C(C)C)ncnc3[nH]2)cn1; 26
6) C[C@H](C(=O)O)[C@@H](NC(=O)c1ncnc2[nH]ccc12)c1ccc(Br)cc1; 16
7) Cn1ncc(-c2cc3c(N[C@@H](c4ccc5c(n4)OCCO5)C(C)(C)C)ncnc3[nH]2)c1C#N; 21

So what's the measured Inhibition for this one? "CNCc1cc(-c2cc3c(N[C@@H](c4ccc5c(c4)S(=O)(=O)CCC5)C(C)C)ncnc3[nH]2)co1" 16

----------
Measured inhibition at 2 min of individual entries
- experimental-target: NaV1.5 (sodium channel protein type 5 subunit alpha) (Homo sapiens)
- Sequence (Q14524 whole entry): as above
- protocol: Compounds were solubilised to 10 mM in DMSO and diluted in HBPS to 30 mM. 6-Point concentration-response curves were generated using serial dilutions from the top test concentration. Electrophysiological recordings were made from a Chinese Hamster Ovary cell line stably expressing the full-length ion channel. Single cell ionic currents were measured in whole-cell configuration at room temperature. The internal solution for hNaV1.5 is buffered to pH 7.3, and the external solution is buffered to pH 7.4. The test pulse was applied according to voltage protocol. Compounds were incubated for 2 min to allow stabilization of the parameters. Concentration-response curves were generated by cumulative addition of compound with concentrations low to high. In all cases, steady-state inhibition was achieved before the next concentration of compound was added. To investigate any use-dependence, an 8-pulse voltage protocol is applied at a frequency of 3 Hz. Inhibition is compared at pulse 1 and pulse 8. Any difference in the potency of a compound at P8 versus P1 would be typical of use-dependent block. IC50 values or % inhibition at the top test concentration is obtained. The assay has been performed by Concept Life Sciences Ltd.
- Assay type: toxicity, cell-based, Cricetulus griseus, CHO
- measurement-conditions: chinese hamster, CHO cells stably expressing full-length hNaV1.5, pH 7.3; top test concentration 30 uM
Write the number in % without appending the unit.

1) COc1ccc([C@H](Cc2nnn[nH]2)NC(=O)c2ncnc3[nH]ccc23)cc1; 9
2) Cn1ncc(-c2cc3c(N[C@@H](c4ccc5c(n4)OCCO5)C(C)(C)C)ncnc3[nH]2)c1C#N; 17
3) CNCc1cc(-c2cc3c(N[C@@H](c4ccc5c(c4)S(=O)(=O)CCC5)C(C)C)ncnc3[nH]2)co1; 10
4) CC(C)[C@@H](Nc1ncnc2[nH]c(-c3cnn(C)c3C#N)cc12)c1ccc2c(n1)OCCO2; 27
5) CC(C)[C@@H](Nc1ncnc2[nH]c(C(=O)N[C@@H]3CCN(C)C3)cc12)c1ccc2c(c1)S(=O)(=O)CCC2; 11
6) CNC(=O)Cn1cc(-c2cc3c(N[C@@H](c4ccc5c(c4)S(=O)(=O)CCC5)C(C)C)ncnc3[nH]2)cn1; 15
7) CC(C)[C@H](Nc1ncnc2[nH]c(-c3cnn(C)c3C#N)cc12)c1ccc2c(n1)OCCO2; 33
8) CC(C)[C@H](Nc1ncnc2[nH]ccc12)c1ccc2c(c1)S(=O)(=O)CCC2; 19

Turning to the following compound.
So what's the measured inhibition at 2 min for this one? "C[C@H](C(=O)O)[C@@H](NC(=O)c1ncnc2[nH]ccc12)c1ccc(Br)cc1" 18
